Examples of molecules with documented Cmax/D follow.
measurement_notes: Pharmacokinetic studies in Beagle dogs after oral administration of SNAC-based tablets
Type: in vivo
test_conditions: dogs, oral administration (tablet)
Starred links: 1 amine or outer side, 2 acyl side, 3 side chain; linkers in the order of their positions; H or OH if unused. Non-standard residues stand in square brackets, D forms with d. Groups on a side chain read outwards from the residue. *: point of attachment. C20 diacid = O=C(O)CCCCCCCCCCCCCCCCCCC(=O)*; γGlu = O=C(O)[C@H](CCC(=O)[*:2])N[*:1]; εLys = N[C@@H](CCCCN[*:1])C(=O)[*:2]; AEEA = NCCOCCOCC(=O)O; Aib = CC(C)(N)C(=O)O
Output spec: scalar in kg/L, unitless text.

Example molecules with recorded Cmax/D:
| molecule | recorded_measurement |
| --- | --- |
| H-Aib-EGTFTSDVS-K([2-[2-[2-[[2-[2-[2-[[(4S)-4-Carboxy-4-[[4-[(19-Carboxynonadecanoylamino)Methyl]Cyclohexanecarbonyl]Amino]Butanoyl]Amino]Ethoxy]Ethoxy]Acetyl]Amino]Ethoxy]Ethoxy]Acetyl])-YLEEQAAREFIA … (peptide) peptide: H-H[Aib]EGTFTSDVSK([AEEA-AEEA-γGlu-4‑(aminomethyl)cyclohexanecarbonyl-C20 diacid])YLEEQAAREFIAWLVRGRGGGGGEASELSTAALGRLSAELHELATLPRTETGSGSP-NH2 | 0.45 |
| HWEGTFTSDVSSYLEEQAAR-K([2-[2-[2-[[2-[2-[2-[[(4S)-4-Carboxy-4-[[4-[(19-Carboxynonadecanoylamino)Methyl]Cyclohexanecarbonyl]Amino]Butanoyl]Amino]Ethoxy]Ethoxy]Acetyl]Amino]Ethoxy]Ethoxy]Acetyl])-FIEWLVR … (peptide) peptide: HWEGTFTSDVSSYLEEQAARK([AEEA-AEEA-γGlu-4‑(aminomethyl)cyclohexanecarbonyl-C20 diacid])FIEWLVRGRGEGGGGGASELSTAALGRLSAELHELATLPRTETGSGSP-NH2 | 0.36 |
| H-Aib-EGTFTSDVSSYLEEQAAREFIAWLVRGRP-K([2-[2-[2-[[2-[2-[2-[[(4S)-4-Carboxy-4-[[4-[(19-Carboxynonadecanoylamino)Methyl]Cyclohexanecarbonyl]Amino]Butanoyl]Amino]Ethoxy]Ethoxy]Acetyl]Amino]Ethoxy]Ethoxy]A … (peptide) peptide: H[Aib]EGTFTSDVSSYLEEQAAREFIAWLVRGRPK([AEEA-AEEA-γGlu-4‑(aminomethyl)cyclohexanecarbonyl-C20 diacid])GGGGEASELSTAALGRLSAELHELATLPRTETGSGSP-NH2 | 0.12 |

Data request, read-out Cmax/D, for H-Aib-EGTFTSDVSSYLEEQAAREFIAWLVRGR-K([(2S)-2-Amino-6-[[2-[2-[2-[[2-[2-[2-[[(4S)-4-Carboxy-4-[[4-[(19-Carboxynonadecanoylamino)Methyl]Cyclohexanecarbonyl]Amino]Butanoyl]Amino]Ethoxy]Ethoxy]Acetyl]Amino … (peptide) peptide: H[Aib]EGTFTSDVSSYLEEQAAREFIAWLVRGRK([εLys-AEEA-AEEA-γGlu-4‑(aminomethyl)cyclohexanecarbonyl-C20 diacid])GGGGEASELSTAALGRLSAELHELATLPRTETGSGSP-NH2 0.14
